- Tested on: UACC-257 melanoma
- MEASUREMENT DESCRIPTION: NCI tumour cell line growth inhibition, 48 h
METRIC NAME: TGI (µM)
Just the number please, in µM, no unit attached.

Check out these entries, answers already filled in.
- MOLECULE: "CN(C)CC1CCC(=C2CCCC2)C1=O (stereo unspecified)"
  TGI / µM: 31.8
- MOLECULE: "Cc1ccc(Nc2nc3nc[nH]c3c(=O)[nH]2)cc1CO"
  TGI / µM: 31.2
- MOLECULE: "CCCc1c(Cl)nc(Cl)nc1Cl"
  TGI / µM: 11.1
- MOLECULE: "CCN(Cc1ccncc1)c1ccc(CO)c(Cl)c1"
  TGI / µM: 0.738

Now for a further molecule.
**Query** Query TGI for CCCCCCCCc1ccc(OCCOCC[N+](C)(C)CC)cc1 (tested in a mixture with another compound)
**Result** 6.8
